Tested on: 598228-144-R-J1-PDC complex spheroids, viability;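 also: spheroids exposed to compounds for seven days before readout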
assay.notes: Anticancer human tumor 598228-144-R-J1-PDC patient-derived serous endometrial adenocarcinoma cell line growth inhibition [CLK]; active = viability on the fitted dose curve at most 10% of control; inactive = the rest
condition.parameters: second compound 0.0316 µM; first compound 1 µM
Excerpt: A high-throughput screen of multi-cell type tumor spheroids was designed to identify active combinations of […] and targeted small molecules. Complex spheroids include a stromal component modeled by human endothelial cells (HUVEC) and fibroblasts modeled by human mesenchymal stem cells (MSCs). […] Compounds. […] If the clinical Cmax for an agent had not been determined, the highest concentration tested was 10 microM. […]
# output must be one of yes for active, no for inactive

| compound | assigned.label |
| --- | --- |
| COc1c(OCCCN2CCOCC2)ccc2c3n(c(=NC(=O)c4cnc(N)nc4)nc12)CCN3 + CNC(=O)c1ccc(Nc2nc(OC3CCCC3)c3c(-c4ccc5nc(C)oc5c4)c[nH]c3n2)c(OC)c1 | yes |
| Nc1ccccc1NC(=O)c1ccc(CNC(=O)OCc2cccnc2)cc1 + CNC(=O)c1ccc(Nc2nc(OC3CCCC3)c3c(-c4ccc5nc(C)oc5c4)c[nH]c3n2)c(OC)c1 | no |

In the following, a different compound is considered.
Query: recorded result category for C#Cc1c(F)ccc2cc(O)cc(-c3ncc4c(N5CC6CCC(C5)N6)nc(OCC56CCCN5CC(F)C6)nc4c3F)c12 (stereo not drawn) + CN1CCN(c2cc(C(=O)Nc3cc4cc(-c5cnn(C)c5)ccc4cn3)ccn2)CC1 in this test
no
